Below, each of the molecules is paired with its reported inhibition at 10 µM value.
target: UniProt:P0DTD1; test: Nsp14 MTase assay detected with MTase-Glo methyltransferase assay kit; format: biochemical; conditions: read-out: MTase % inhibition at 10 μM
READOUT: inhibition at 10 µM (%)

> print(dat)
                           molecular.string  measured.result
1  COc1ccc(S(=O)(=O)NC[C@H]2O[C@@H](n3ccc4c(N)ncnc43)[C@H](O)[C@@H]2O)cc1C#N               98
2  Nc1ncnn2c([C@@H]3O[C@H](CNS(=O)(=O)c4cccc(-c5ccccc5)c4)[C@@H](O)[C@H]3O)ccc12               85
3  Nc1ncnc2c([C@@H]3O[C@H](CNS(=O)(=O)c4ccc5ccccc5c4)[C@@H](O)[C@H]3O)csc12               91
4  CCN(C[C@H]1O[C@@H](n2ccc3c(N)ncnc32)[C@H](O)[C@@H]1O)S(=O)(=O)c1ccc(OC)c(C#N)c1              100

----------
target: SARS-CoV-2 Nsp14 MTase (Severe acute respiratory syndrome coronavirus 2, UniProt P0DTD1); assay: Nsp14 MTase assay detected with MTase-Glo methyltransferase assay kit; format: biochemical; conditions: methylation reaction detected by MTase-Glo kit
READOUT: IC50 (nM)

> print(dat)
                                   molecule  readout  measured.result
1  Nc1ncnc2c1ccn2[C@@H]1O[C@H](CNS(=O)(=O)c2ccc3ccccc3c2)[C@@H](O)[C@H]1O [Compound C9]     IC50               19
2  CCN(C[C@H]1O[C@@H](c2ccc3c(N)ncnn23)[C@H](O)[C@@H]1O)S(=O)(=O)c1ccc2ccccc2c1 [Compound 53]     IC50              156
3  Nc1ncnn2c([C@@H]3O[C@H](CNS(=O)(=O)c4ccc5ccccc5c4)[C@@H](O)[C@H]3O)cc(F)c12 [Compound 51]     IC50               32
4  Nc1ncnn2c([C@@H]3O[C@H](CNS(=O)(=O)c4ccc5c(Cl)cccc5c4)[C@@H](O)[C@H]3O)ccc12 [Compound 39]     IC50               49

----------
Below, each of the molecules is paired with its reported IC50 value.
target: SARS-CoV-2 Nsp14 MTase (Severe acute respiratory syndrome coronavirus 2); experiment: biochemical; type: biochemical; settings: LC-MS/MS detection of SAH; read-out: MTase IC50
READOUT: IC50

> print(dat)
                           molecular.string  readout  measured.result
1  Nc1ncnc2c1ncn2[C@@H]1O[C@H](CNC(=O)c2ccc3ccccc3c2)[C@@H](O)[C@H]1O     IC50          2700 nM
2  Nc1ncnn2c([C@@H]3O[C@H](CNS(=O)(=O)c4ccc5ccccc5c4)[C@@H](O)[C@H]3O)cc(I)c12     IC50            46 nM
3  Nc1ncnc2c1ncn2[C@@H]1O[C@H](CNS(=O)(=O)c2ccc3nc(Cl)ccc3c2)[C@@H](O)[C@H]1O     IC50           440 nM

----------
Below, each of the compounds is paired with its reported inhibition at 10 µM value.
molecular target: SARS-CoV-2 Nsp14 MTase (Severe acute respiratory syndrome coronavirus 2); experiment: Nsp14 MTase assay detected with MTase-Glo methyltransferase assay kit; assay type: biochemical; conditions: read-out: MTase % inhibition at 10 μM
READOUT: inhibition at 10 µM

> print(dat)
                           molecular.string  measured.result
1  Nc1ncnn2c([C@@H]3O[C@H](CNS(=O)(=O)c4ccc(-c5ccccc5)cc4)[C@@H](O)[C@H]3O)ccc12              85%
2  COc1ccc(S(=O)(=O)NC[C@H]2O[C@@H](c3ccc4c(N)ncnn34)[C@H](O)[C@@H]2O)cc1[N+](=O)[O-]              79%
3  COc1ccc(S(=O)(=O)NC[C@H]2O[C@@H](c3ccc4c(N)ncnn34)[C@H](O)[C@@H]2O)cc1C#N              94%

----------
Below, each of the compounds is paired with its reported IC50 value.
target: SARS-CoV-2 Nsp14 MTase (Severe acute respiratory syndrome coronavirus 2, UniProt P0DTD1); assay: biochemical; type: biochemical; details: LC-MS/MS assay; read-out: IC50
READOUT: IC50 (nM)

> print(dat)
                                   compound  readout  measured.result
1  CC(=O)Nc1ncnc2c1ncn2[C@@H]1O[C@H](CNS(=O)(=O)c2ccc3ccccc3c2)[C@@H](O)[C@H]1O [Compound 6]     IC50               48
2  Nc1ncnc2c1ncn2[C@@H]1O[C@H](CNS(=O)(=O)c2ccc3ccccc3c2)[C@@H](O)[C@H]1O [Compound 3]     IC50               61

----------
Below, each of the compounds is paired with its reported CC50 value.
test system: A549/ACE2/TMPRSS2 cells; test: in vitro; conditions: A549/ACE2/TMPRSS2 cells

COMPOUND	CC50
CCC(CC)COC(=O)[C@H](C)N[P@](=O)(OC[C@H]1O[C@@](C#N)(c2ccc3c(N)ncnn23)[C@H](O)[C@@H]1O)Oc1ccccc1 [remdesivir, reference compound]	43 µM
CC(=O)O[C@@H]1[C@H](OC(C)=O)[C@@H](CNS(=O)(=O)c2ccc3ccccc3c2)O[C@H]1c1ccc2c(N)ncnn12 [Compound 11]	63 µM
CC(C)C(=O)O[C@@H]1[C@H](OC(=O)C(C)C)[C@@H](CNS(=O)(=O)c2ccc3ccccc3c2)O[C@H]1n1cnc2c(N)ncnc21 [Compound 7]	> 100 µM
CC(=O)Nc1ncnc2c1ncn2[C@@H]1O[C@H](CNS(=O)(=O)c2ccc3ccccc3c2)[C@@H](OC(C)=O)[C@H]1OC(C)=O [Compound 9]	> 100 µM
CC(=O)O[C@@H]1[C@H](OC(C)=O)[C@@H](CNS(=O)(=O)c2ccc3ccccc3c2)O[C@H]1n1cnc2c(N)ncnc21 [Compound 8]	> 100 µM
CC(=O)Nc1ncnc2c1ncn2[C@@H]1O[C@H](CNS(=O)(=O)c2ccc3ccccc3c2)[C@@H](O)[C@H]1O [Compound 6]	> 100 µM
Nc1ncnn2c([C@@H]3O[C@H](CNS(=O)(=O)c4ccc5ccccc5c4)[C@@H](O)[C@H]3O)ccc12 [Compound 10]	> 100 µM

----------
target: SARS-CoV-2 Nsp14 MTase (Severe acute respiratory syndrome coronavirus 2, UniProt P0DTD1); assay: biochemical; type: biochemical; details: LC-MS/MS detection of SAH; read-out: MTase IC50
Param label: returns 1 (yes) when IC50 < 0.3 µM, returns 0 (no) otherwise, including exact equality.

> print(dat)
                                   compound  classification
1  Nc1ncnn2c([C@@H]3O[C@H](CNS(=O)(=O)c4csc5ccccc45)[C@@H](O)[C@H]3O)ccc12 [Compound 14]          0 (no)
2  Nc1ncnn2c([C@@H]3O[C@H](CNS(=O)(=O)c4ccc5ccccc5c4)[C@@H](O)[C@H]3O)ccc12 [Compound 10]         1 (yes)
3  CCN(C[C@H]1C[C@@H](n2cnc3c(N)ncnc32)[C@H](O)[C@@H]1O)S(=O)(=O)c1ccc2ccccc2c1 [Compound A2]         1 (yes)
4  CCN(C[C@H]1C[C@@H](n2cnc3c(N)ncnc32)[C@@H](O)[C@H]1O)S(=O)(=O)c1ccc2ccccc2c1 [Compound A4]          0 (no)
5  Nc1ncnc2c1ncn2[C@@H]1O[C@H](CNS(=O)(=O)c2ccc3cccnc3c2)[C@@H](O)[C@H]1O [Compound 4]         1 (yes)
6  Nc1ncnc2c1ncn2[C@@H]1O[C@H](CNCc2ccc3ccccc3c2)[C@@H](O)[C@H]1O [Compound 1]          0 (no)
7  Nc1ncnn2c([C@@H]3O[C@H](CNS(=O)(=O)c4cccc5ccccc45)[C@@H](O)[C@H]3O)ccc12 [Compound 12]          0 (no)
